Target: Neuronal acetylcholine receptor; alpha4/beta2 (Rattus norvegicus, UniProt P09483+P12390)
Sequence (P09483 whole entry): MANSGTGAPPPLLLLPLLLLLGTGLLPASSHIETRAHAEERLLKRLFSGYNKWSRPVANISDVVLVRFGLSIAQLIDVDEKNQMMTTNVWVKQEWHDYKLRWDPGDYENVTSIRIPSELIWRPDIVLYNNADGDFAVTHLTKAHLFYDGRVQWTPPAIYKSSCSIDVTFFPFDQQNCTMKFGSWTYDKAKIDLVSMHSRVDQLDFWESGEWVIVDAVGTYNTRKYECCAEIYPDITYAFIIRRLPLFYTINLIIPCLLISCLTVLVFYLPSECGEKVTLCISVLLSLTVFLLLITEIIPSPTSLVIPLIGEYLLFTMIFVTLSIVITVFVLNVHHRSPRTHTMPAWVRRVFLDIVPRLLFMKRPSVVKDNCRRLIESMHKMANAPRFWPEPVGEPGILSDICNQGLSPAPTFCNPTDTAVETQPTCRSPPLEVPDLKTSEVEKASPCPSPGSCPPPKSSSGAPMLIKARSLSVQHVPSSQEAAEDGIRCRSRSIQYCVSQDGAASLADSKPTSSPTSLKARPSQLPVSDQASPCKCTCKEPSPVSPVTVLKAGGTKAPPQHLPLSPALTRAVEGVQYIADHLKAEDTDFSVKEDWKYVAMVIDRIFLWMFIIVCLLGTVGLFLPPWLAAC
Sequence (P12390 whole entry): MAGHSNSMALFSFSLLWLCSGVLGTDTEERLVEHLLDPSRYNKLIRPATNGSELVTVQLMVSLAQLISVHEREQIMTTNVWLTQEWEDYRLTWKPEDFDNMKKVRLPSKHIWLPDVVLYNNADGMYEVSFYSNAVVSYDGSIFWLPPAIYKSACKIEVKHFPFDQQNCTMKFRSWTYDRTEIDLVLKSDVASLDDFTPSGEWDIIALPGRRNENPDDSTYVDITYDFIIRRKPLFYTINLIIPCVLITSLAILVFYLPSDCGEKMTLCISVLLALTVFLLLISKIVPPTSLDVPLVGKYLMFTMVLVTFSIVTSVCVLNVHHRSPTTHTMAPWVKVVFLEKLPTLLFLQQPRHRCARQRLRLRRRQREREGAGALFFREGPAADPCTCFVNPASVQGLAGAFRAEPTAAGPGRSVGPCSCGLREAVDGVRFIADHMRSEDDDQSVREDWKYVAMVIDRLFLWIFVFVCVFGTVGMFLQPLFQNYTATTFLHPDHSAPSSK
Assay: Inhbition of [3H] nicotine binding to rat brain alpha4beta2 nAChR
metric: pKi
By convention, pKi is the negative base-10 log of a molar concentration.

The molecule listed as `CN(C)CC/C=C/c1cccnc1` has a reported pKi of 7.59

----------
metric: pEC50
By convention, pEC50 is the negative base-10 log of a molar concentration.

`CN(C)CC/C=C/c1cccnc1` on Neuronal acetylcholine receptor; alpha4/beta2 (Rattus norvegicus, UniProt P09483+P12390) gives pEC50 = 6.14

----------
Target: Acetylcholinesterase (Electrophorus electricus, UniProt O42275)
Sequence (O42275 whole entry): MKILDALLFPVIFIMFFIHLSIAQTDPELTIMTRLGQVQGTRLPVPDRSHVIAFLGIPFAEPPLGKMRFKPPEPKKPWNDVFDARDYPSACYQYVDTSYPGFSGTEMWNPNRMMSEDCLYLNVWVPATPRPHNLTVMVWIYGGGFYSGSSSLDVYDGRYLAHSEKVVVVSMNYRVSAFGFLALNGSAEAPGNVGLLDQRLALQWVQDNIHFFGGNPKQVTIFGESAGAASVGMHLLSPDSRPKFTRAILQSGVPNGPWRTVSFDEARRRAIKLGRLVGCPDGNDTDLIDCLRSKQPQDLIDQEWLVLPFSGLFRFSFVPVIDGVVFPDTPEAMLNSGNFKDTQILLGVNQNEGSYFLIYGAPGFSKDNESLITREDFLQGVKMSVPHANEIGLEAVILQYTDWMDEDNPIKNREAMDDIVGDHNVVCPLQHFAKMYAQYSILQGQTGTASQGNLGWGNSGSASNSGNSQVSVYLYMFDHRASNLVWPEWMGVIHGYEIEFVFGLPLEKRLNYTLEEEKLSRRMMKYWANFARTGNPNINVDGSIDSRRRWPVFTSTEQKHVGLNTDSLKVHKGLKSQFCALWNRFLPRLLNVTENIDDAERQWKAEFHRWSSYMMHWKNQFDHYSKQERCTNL
metric: IC50 (µM)
Provide the reading as a plain figure in µM.

The compound listed as C=CC1C2C=C(CO)CC1(N)c1ccc(=O)[nH]c1C2 (stereo unspecified) has a reported IC50 of 23.9

----------
Biological target: Neuropeptide Y receptor type 2 (Homo sapiens)
Sequence (P49146 whole entry): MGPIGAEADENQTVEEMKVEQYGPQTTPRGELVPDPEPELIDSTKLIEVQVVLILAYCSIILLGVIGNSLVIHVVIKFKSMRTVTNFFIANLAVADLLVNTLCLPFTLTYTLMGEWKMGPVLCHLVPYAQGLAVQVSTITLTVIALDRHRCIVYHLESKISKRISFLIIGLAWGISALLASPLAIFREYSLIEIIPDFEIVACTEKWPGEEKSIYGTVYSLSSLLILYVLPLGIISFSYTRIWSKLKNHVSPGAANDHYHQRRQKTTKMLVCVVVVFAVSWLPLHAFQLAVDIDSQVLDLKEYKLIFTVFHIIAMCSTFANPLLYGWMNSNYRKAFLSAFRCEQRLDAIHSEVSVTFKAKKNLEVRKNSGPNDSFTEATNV
pIC50: −log10 of the molar value.
metric: pIC50

The compound listed as `CN(C)CC/C=C/c1cccnc1` has a reported pIC50 of < 5.00

----------
Molecular target: Neuronal acetylcholine receptor subunit alpha-7 (Homo sapiens, UniProt P36544)
Sequence (P36544 whole entry): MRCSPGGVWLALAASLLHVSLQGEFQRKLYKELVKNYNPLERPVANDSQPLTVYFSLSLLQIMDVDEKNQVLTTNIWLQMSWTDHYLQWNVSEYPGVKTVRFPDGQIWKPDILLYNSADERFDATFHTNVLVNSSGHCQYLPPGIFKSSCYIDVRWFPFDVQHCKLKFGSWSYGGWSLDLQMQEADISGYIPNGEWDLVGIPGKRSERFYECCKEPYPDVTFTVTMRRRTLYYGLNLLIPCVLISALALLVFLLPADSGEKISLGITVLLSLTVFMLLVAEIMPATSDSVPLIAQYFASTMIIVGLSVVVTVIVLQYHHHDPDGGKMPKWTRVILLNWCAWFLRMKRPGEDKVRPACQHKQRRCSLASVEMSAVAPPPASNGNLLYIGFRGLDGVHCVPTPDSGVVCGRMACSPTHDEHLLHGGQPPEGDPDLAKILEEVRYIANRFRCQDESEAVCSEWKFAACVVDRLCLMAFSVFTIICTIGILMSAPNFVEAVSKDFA
metric: pKi
By convention, pKi is the negative base-10 log of a molar concentration.

The compound listed as Clc1ccc(C2CC3CCC2N3)cn1 (stereo in doubt; (+)) [EPIBATIDINE] has a reported pKi of 8.66

----------
Target: Neuronal acetylcholine receptor subunit alpha-7 (Rattus norvegicus, UniProt Q05941)
Sequence (Q05941 whole entry): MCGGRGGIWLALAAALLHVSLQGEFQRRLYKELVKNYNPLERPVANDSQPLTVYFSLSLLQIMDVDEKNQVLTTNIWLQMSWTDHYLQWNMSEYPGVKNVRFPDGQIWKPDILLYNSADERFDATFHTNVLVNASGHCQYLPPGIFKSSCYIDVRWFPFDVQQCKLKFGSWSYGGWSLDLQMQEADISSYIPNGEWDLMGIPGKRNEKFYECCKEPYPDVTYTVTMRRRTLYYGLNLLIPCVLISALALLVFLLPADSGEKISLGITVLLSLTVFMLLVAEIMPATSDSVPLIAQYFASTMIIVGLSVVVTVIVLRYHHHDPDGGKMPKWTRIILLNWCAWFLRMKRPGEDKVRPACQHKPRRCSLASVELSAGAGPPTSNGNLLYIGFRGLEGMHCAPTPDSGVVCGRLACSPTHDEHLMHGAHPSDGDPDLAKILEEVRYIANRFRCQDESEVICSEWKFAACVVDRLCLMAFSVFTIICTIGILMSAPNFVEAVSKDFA
Assay: Displacement of 125I-alpha-bungarotoxin from rat brain alpha7 nAChR by radioligand binding assay
Provide the recorded Ki for the entries that follow.
Provide the reading as a plain figure in nM.

The molecule listed as c1cncc([C@@H]2CCCCN2)c1 [ANABASINE] has a reported Ki of 390

The molecule listed as `c1cncc([C@H]2CCCCN2)c1` has a reported Ki of 3700

----------
Biological target: Muscarinic acetylcholine receptor M1 (Rattus norvegicus)
Sequence (P08482 whole entry): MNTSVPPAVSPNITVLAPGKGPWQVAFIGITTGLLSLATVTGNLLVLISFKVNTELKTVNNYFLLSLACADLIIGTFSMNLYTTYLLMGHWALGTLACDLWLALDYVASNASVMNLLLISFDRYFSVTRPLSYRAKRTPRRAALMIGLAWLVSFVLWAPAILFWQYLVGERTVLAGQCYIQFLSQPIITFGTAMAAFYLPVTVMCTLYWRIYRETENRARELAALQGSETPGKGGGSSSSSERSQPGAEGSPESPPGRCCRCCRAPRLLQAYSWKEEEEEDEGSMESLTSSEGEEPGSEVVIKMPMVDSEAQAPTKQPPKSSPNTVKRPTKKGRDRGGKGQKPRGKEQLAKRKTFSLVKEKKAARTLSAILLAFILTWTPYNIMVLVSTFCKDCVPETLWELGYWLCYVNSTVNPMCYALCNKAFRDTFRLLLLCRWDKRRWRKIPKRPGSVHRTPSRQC
Mark each entry 1 (yes) if its IC50 sits below 200 µM, and 0 (no) for all others.

Query string: # check: IC50 < 200 µM for `c1cc2c[n+](c1)CCCCCCCCCCCCCCc1ccc[n+](c1)CCCCCCCCCCCCC2`
Result string: 0 (no)

Query string: # check: IC50 < 200 µM for `c1cc2c[n+](c1)CCCCCCCCCCCCCc1ccc[n+](c1)CCCCCCCCCCCC2`
Result string: 1 (yes)

Query string: # check: IC50 < 200 µM for `c1cc2c[n+](c1)CCCCCCCCCCCCc1ccc[n+](c1)CCCCCCCCCCCC2`
Result string: 1 (yes)

Query string: # check: IC50 < 200 µM for `c1cc2c[n+](c1)CCCCCCCCCCCCCCc1ccc[n+](c1)CCCCCCCCCCCC2`
Result string: 0 (no)

Query string: # check: IC50 < 200 µM for `c1cc2c[n+](c1)CCCCCCCCCCCCCc1ccc[n+](c1)CCCCCCCCCCCCC2`
Result string: 1 (yes)

Query string: # check: IC50 < 200 µM for `c1cc2c[n+](c1)CCCCCCCCCCCCCCc1ccc[n+](c1)CCCCCCCCCCCCCC2`
Result string: 0 (no)
